Target: wild type PDE9A2 catalytic domain (Homo sapiens)
Construct: The coding region for residues 181-506 of PDE9A2 was amplified by PCR; inferred from vector pET15b and Ni-NTA purification) (N); made in house; host or cells: E. coli BL21 (Codonplus)
Sequence (O76083 241-566): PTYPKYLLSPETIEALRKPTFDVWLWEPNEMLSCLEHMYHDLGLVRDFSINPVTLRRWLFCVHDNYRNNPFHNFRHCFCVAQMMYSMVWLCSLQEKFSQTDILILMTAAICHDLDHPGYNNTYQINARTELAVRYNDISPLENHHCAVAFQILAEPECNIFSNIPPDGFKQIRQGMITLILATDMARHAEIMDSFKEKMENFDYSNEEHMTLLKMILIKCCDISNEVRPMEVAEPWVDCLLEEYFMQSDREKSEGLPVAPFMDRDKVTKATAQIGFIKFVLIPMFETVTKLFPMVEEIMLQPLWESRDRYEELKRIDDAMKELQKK
Experiment: PDE9A2 enzymatic assay, IC50 of inhibitors (3H-cGMP substrate)
Format: biochemical
observation type: pIC50
Recall that pIC50 is obtained by taking minus log10 of the concentration measured in molar.

Give its pIC50 value. Item: CC(C)Cn1c(=O)n(C)c(=O)c2[nH]cnc21
4.27

----------
Molecular target: PDE9A2 E406A mutant (Homo sapiens, UniProt O76083, E466A)
Construct: The coding region for residues 181-506 of PDE9A2 was amplified by PCR; inferred from vector pET15b and Ni-NTA purification) (N); made in house; host or cells: E. coli BL21 (Codonplus)
Sequence (O76083 241-566 E466A): as the sequence (O76083 241-566) above, with E226A counted along it
Experiment: PDE9A2 enzymatic assay, IC50 of inhibitors (3H-cGMP substrate)
Format: biochemical
Conditions: E406A mutant; 30 nM 3H-cGMP; read-out: IC50
observation type: pIC50
Recall that pIC50 is obtained by taking minus log10 of the concentration measured in molar.

Give its pIC50 value. Item: CCCOc1ccccc1-c1nc2nn[nH]c2c(=O)[nH]1
5.12
